B1: Lysine-specific demethylase 2B, residues 656 to 722; numbered along this chain, Q8NHM5 (parent)
chain: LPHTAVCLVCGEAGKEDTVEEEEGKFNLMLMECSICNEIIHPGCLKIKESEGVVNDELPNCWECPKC

Variants of: B1
protocol.description: abundance fitness (aPCA) (normalised: wild type 0, dead -1); higher = more abundant; growth selection in yeast, the domain comes from the species named
condition.context: Homo sapiens
Classification field. Basis: abundance fitness. Definitions: low end = under -0.2, middle = from -0.2 up to -0.1, high end = -0.1 and over

Look over these answered cases.
E12G
high end
T18C
low end
V19R
high end

Category of V19G , please.
middle

Category of N27G , please.
middle
